target: Potassium voltage-gated channel subfamily A member 4 (Rattus norvegicus); test: Inhibition of rat Kv1.4 expressed in Xenopus laevis oocytes at -90 mV holding potential by two-electrode voltage clamp assay
Sequence (P15385 whole entry): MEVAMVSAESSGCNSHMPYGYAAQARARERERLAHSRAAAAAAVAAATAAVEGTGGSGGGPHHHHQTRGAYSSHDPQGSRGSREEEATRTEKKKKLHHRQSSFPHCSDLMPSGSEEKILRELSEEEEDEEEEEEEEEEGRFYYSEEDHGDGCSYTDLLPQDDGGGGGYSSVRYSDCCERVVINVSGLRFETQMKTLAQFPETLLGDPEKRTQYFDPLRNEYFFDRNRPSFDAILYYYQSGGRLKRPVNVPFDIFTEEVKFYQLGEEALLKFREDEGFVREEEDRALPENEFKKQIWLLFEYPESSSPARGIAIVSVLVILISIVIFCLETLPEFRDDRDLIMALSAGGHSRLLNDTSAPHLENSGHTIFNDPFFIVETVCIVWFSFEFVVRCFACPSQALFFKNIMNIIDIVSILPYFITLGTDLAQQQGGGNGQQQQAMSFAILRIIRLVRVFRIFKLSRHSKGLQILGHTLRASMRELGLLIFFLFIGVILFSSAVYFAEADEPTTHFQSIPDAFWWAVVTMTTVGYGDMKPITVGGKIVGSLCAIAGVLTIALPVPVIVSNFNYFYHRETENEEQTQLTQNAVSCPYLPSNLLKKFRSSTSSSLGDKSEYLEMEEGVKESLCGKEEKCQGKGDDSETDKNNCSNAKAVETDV
readout_type: pIC50
In simple prose, pIC50 is minus the logarithm base ten of a concentration in moles per litre.

Request: Given the entry Nc1ncc(/C=C/CNC(=O)c2cc(Br)c(Br)[nH]2)[nH]1 , report its measured pIC50.
Result: 5.24

Continuing:
Request: For the compound Nc1nc(/C=C/CNC(=O)c2cc(Cl)c(Cl)[nH]2)c[nH]1 , what pIC50 is on record?
Result: 6.22

Request: Would you kindly share the measured pIC50 for Cc1[nH]c(C(=O)NC/C=C/c2c[nH]c(N)n2)c(Br)c1Br ?
Result: 6.64

Request: What pIC50 value was documented for this compound, Cc1[nH]c(C(=O)NC/C=C/c2c[nH]c(N)n2)cc1Cl ?
Result: 6.14

Request: So what does the record say about pIC50 for Cc1[nH]c(C(=O)NC/C=C/c2c[nH]c(N)n2)cc1Br ?
Result: 6.42
